The measured values listed here are drawn from patent US6750228B1.

# TEST SYSTEM: MMP-13 (Homo sapiens, UniProt P45452)
# Construct: made in house; host or cells: baculovirus / insect cells
# ASSAY REMARKS: biochemical
# CONDITION PARAMETERS: recombinant human MMP-13, MCA peptide substrate 4 μM, pH 7.5, room temperature; read-out: MMP-13 IC50
Answer each item with its documented pIC50.
Friendly reminder that pIC50 comes from taking -log10 of the concentration in mol/L.

Give its pIC50 value. Item: O=C(NCC1CC1)C1CCN(c2ccc(S(=O)(=O)C3(C(=O)NO)CCOCC3)cc2)CC1 [Example 53]
7.54

Then O=C(NO)C1(S(=O)(=O)c2ccc(N3CC[C@@H](OCc4ccccc4)C3)cc2)CCOCC1 [Example 530] ?
7.70

Field entry: CC(C)(Cl)CC(=O)C1CCN(c2ccc(S(=O)(=O)C3(C(=O)NO)CCOCC3)cc2)CC1 [Example 760]
8.22

Also, CN(C)S(=O)(=O)N(C)C1CCN(c2ccc(S(=O)(=O)C3(C(=O)NO)CCOCC3)cc2)CC1 [Example 832] please.
7.74

Lookup CCC(C)COCc1ccc(COC2CCN(c3ccc(S(=O)(=O)C4(C(=O)NO)CCOCC4)cc3)CC2)cc1 (centres unmarked) [Example 601]
8.05

# repeat for O=C(NO)C1(S(=O)(=O)c2ccc(N3CCC(Oc4ccccc4[N+](=O)[O-])CC3)cc2)CCOCC1 [Example 552]
7.89

Then O=C(NO)C1(S(=O)(=O)c2ccc(OC3CCCC(OCc4ccccc4Cl)C3)cc2)CCOCC1 (centres unmarked) [Example 666] ?
7.32

Note, next up: O=C(NO)C1(S(=O)(=O)c2ccc(N3CCCC3)cc2)CCSCC1 [Example 155]
6.89

====

I'd appreciate it if you could supply IC50 values for the items below.
# TEST SYSTEM: MMP-13 (Homo sapiens)
# Construct: made in house; host or cells: baculovirus / insect cells
# ASSAY REMARKS: biochemical
# CONDITION PARAMETERS: recombinant human MMP-13, MCA peptide substrate 4 μM, pH 7.5, room temperature; read-out: MMP-13 IC50

Would you kindly share the measured IC50 for CCCC(=O)N1CCN(c2ccc(S(=O)(=O)C3(C(=O)NO)CCOCC3)cc2)CC1 ?
0.121 µM

Next: COCCN1CCC(C(N)=O)(S(=O)(=O)c2ccc(Oc3ccc(OC(F)(F)F)cc3)cc2)CC1
0.0227 µM

Now try CC(=O)c1ccccc1S(=O)(=O)N1CC(Oc2ccc(S(=O)(=O)C3(C(=O)NO)CCOCC3)cc2)C1 .
0.04 µM

Next record, please: O=C(NO)C1(S(=O)(=O)c2ccc(N3CCC(S(=O)(=O)c4ccccc4)CC3)cc2)CCN(C2CC2)CC1
0.0224 µM

Also CN(C)c1cccc(C(=O)C2CCN(c3ccc(S(=O)(=O)C4(C(=O)NO)CCOCC4)cc3)CC2)c1 ?
0.0045 µM

Now consider COc1cccc(COC2CCC(Oc3ccc(S(=O)(=O)C4(C(=O)NO)CCOCC4)cc3)C2)c1 (centres unmarked) and answer again.
0.0031 µM

Query CN1CCCN(C2CCN(c3ccc(S(=O)(=O)C4(C(=O)NO)CCOCC4)cc3)CC2)CC1 next
0.2 µM

Lookup CC1CCCN(c2ccc(S(=O)(=O)C3(C(=O)NO)CCOCC3)cc2)C1 (centres unmarked)
0.0307 µM

====

# TEST SYSTEM: MMP-13 (Homo sapiens, UniProt P45452)
# Construct: made in house; host or cells: baculovirus / insect cells
# ASSAY REMARKS: biochemical
# CONDITION PARAMETERS: recombinant human MMP-13, MCA peptide substrate 4 μM, pH 7.5, room temperature; read-out: MMP-13 IC50
ASSAY METRIC: pIC50
Lab note — pIC50 values are minus log10 of concentrations in M.

Consider the compound shown here: CC(C)COCc1ccc(COC2CCN(c3ccc(S(=O)(=O)C4(C(=O)NO)CCOCC4)cc3)CC2)cc1 [Example 555] What is its recorded pIC50?
8.43

Okay, and O=C(Cc1ccc(Cl)cc1)C1CCN(c2ccc(S(=O)(=O)C3(C(=O)NO)CCOCC3)cc2)CC1 [Example 861] ?
8.70

Likewise for CCCc1ccc(C(=O)C2CCN(c3ccc(S(=O)(=O)C4(C(=O)NO)CCOCC4)cc3)CC2)cc1 [Example 860] ?
8.57

Also O=C(NO)C1(S(=O)(=O)c2ccc(N3CCC(c4nc(-c5cccc(C(F)(F)F)c5)no4)CC3)cc2)CCN(C2CC2)CC1 [Example 388] ?
7.30

Please give the result for O=CN1CCC(C(=O)NO)(S(=O)(=O)c2ccc(Oc3ccc(OC(F)(F)F)cc3)cc2)CC1 [Example 416] too.
9.40

Can you handle O=C(c1ccccc1)C1CCN(c2ccc(S(=O)(=O)C3(C(=O)NO)CCOCC3)cc2)CC1 [Example 656] next?
8.51

Moving on to CCOc1ccccc1C1CCN(c2ccc(S(=O)(=O)C3(C(=O)NO)CCOCC3)cc2)CC1 [Example 544]
7.46

====

# TEST SYSTEM: MMP-2 (Homo sapiens)
# Construct: made in house; provided by Dr. Gregory Goldberg, Washington University
# ASSAY REMARKS: biochemical
# CONDITION PARAMETERS: recombinant human MMP-2, MCA peptide substrate 4 μM, pH 7.5, room temperature; read-out: MMP-2 IC50
One threshold, 600 nM, splits the recorded IC50 values: lower ones are satisfied, equal or higher ones are not satisfied.

In plain terms, does CC(C)N1CCC(C(=O)NO)(S(=O)(=O)c2ccc(OC(F)(F)F)cc2)CC1 come in under 600 nM for IC50?
not satisfied

Repeat with O=C(NO)C1(S(=O)(=O)c2ccc(C3=CCC(c4ccccc4)CC3)cc2)CCOCC1 (stereo not shown)
satisfied

Now the same for Cc1cccc(OC2CCN(c3ccc(S(=O)(=O)C4(C(=O)NO)CCOCC4)cc3)CC2)c1
satisfied

Same read-out for COCCN1CCC(C(=O)NO)(S(=O)(=O)c2ccc(N3CCC(C(=O)N(C)c4ccccc4)CC3)cc2)CC1 [Example 244, Monohydrate] ?
not satisfied

And for CC1CC(C)CN(C(=O)C2CCN(c3ccc(S(=O)(=O)C4(C(=O)NO)CCN(C(=O)CNCc5cccs5)CC4)cc3)CC2)C1 (stereo not shown) ?
not satisfied

Repeat with O=C(NO)C1(S(=O)(=O)c2ccc(N3CCC(SCc4ccccc4)CC3)cc2)CCOCC1
satisfied

====

# TEST SYSTEM: MMP-2 (Homo sapiens, UniProt P08253)
# Construct: made in house; provided by Dr. Gregory Goldberg, Washington University
# Sequence (P08253 110-660): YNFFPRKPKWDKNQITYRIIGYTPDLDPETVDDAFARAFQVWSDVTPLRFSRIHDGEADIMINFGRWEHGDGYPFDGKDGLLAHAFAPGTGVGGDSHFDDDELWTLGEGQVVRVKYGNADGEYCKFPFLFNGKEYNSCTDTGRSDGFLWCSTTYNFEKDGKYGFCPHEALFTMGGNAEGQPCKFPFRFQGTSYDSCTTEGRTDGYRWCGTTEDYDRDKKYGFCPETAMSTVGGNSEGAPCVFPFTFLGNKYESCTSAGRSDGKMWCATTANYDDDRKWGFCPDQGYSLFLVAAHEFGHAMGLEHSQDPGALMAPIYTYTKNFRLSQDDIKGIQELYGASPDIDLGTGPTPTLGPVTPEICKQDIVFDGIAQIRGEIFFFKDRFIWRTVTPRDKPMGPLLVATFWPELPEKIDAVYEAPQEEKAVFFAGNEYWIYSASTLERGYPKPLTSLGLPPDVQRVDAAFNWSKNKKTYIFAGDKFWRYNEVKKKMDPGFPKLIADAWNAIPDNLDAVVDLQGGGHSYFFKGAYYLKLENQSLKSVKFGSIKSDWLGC
# ASSAY REMARKS: biochemical
# CONDITION PARAMETERS: recombinant human MMP-2, MCA peptide substrate 4 μM, pH 7.5, room temperature; read-out: MMP-2 IC50
# Description: The compounds prepared in the manner described in the Examples above were assayed for activity by an in vitro assay. […] Briefly, 4-aminophenylmercuric acetate (APMA) or trypsin-activated MMPs were incubated with various concentrations of the inhibitor compound at room temperature for 5 minutes. […] Inhibition was measured as a reduction in fluorescent intensity as a function of inhibitor concentration, using a Perkin Elmer L550 plate reader. The IC50 values were calculated from those values. […]
Kindly state log10 IC50 for each of the entries shown.
Units before log transform: nM; reported quantity: IC50; transform: log10.

Recorded log10 IC50 for CC(C)c1ccc(Oc2ccc(S(=O)(=O)C3(C(=O)NO)CCSCC3)cc2)cc1 [Example 148] with MMP-2 (Homo sapiens, UniProt P08253), please?
0.57

Continue with COc1ccc(NC(=O)C2CCN(c3ccc(S(=O)(=O)C4(C(=O)NO)CCOCC4)cc3)CC2)cc1 [Example 76]
2.40

Same lookup for O=C(NO)C1(S(=O)(=O)c2ccc(N3CCC(n4cnc5ccccc54)CC3)cc2)CCOCC1 [Example 475] , please.
2.70

Now consider O=CN1CCC(C(=O)NO)(S(=O)(=O)c2ccc(Oc3ccc(OC(F)(F)F)cc3)cc2)CC1 [Example 416] and answer again.
-0.70

Now consider CC1CCCCN1c1ccc(S(=O)(=O)C2(C(=O)NO)CCOCC2)cc1 (stereo not drawn) [Example 486] .
3.60

Another compound: O=C(Nc1ccccc1Cl)OC1CCN(c2ccc(S(=O)(=O)C3(C(=O)NO)CCOCC3)cc2)CC1 [Example 521]
1.70

And what about the compound O=C(CCCCN1CCOCC1)N1CCC(C(=O)NO)(S(=O)(=O)c2ccc(Oc3ccc(C(F)(F)F)cc3)cc2)CC1 [Example 335] ?
-0.82

Same question for O=C(NO)C1(S(=O)(=O)c2ccc(N3CCC(Oc4cc(F)c([N+](=O)[O-])c(F)c4)CC3)cc2)CCOCC1 [Example 549] please.
3.46

Input O=C(NO)C1(S(=O)(=O)c2ccc(N3CCN(c4ccc(OC(F)(F)F)cc4)CC3)cc2)CCOCC1 [Example 695]
1.36

One more compound: CS(=O)(=O)N1CCCN(C2CCN(c3ccc(S(=O)(=O)C4(C(=O)NO)CCOCC4)cc3)CC2)CC1 [Example 815]
3.15

And what about the compound O=C(NO)C1(S(=O)(=O)c2ccc(N3CCC(OCc4ccc(Cl)c(Cl)c4)CC3)cc2)CCOCC1 [Example 176] ?
2.40

Quick one: O=C(c1ccc(C(F)(F)F)cc1)C1CCN(c2ccc(S(=O)(=O)C3(C(=O)NO)CCOCC3)cc2)CC1 [Example 729]
2.38

Can you check O=C(NO)C1(S(=O)(=O)c2ccc(N3CCC(n4c(=O)[nH]c5ccccc54)CC3)cc2)CCOCC1 [Example 211] next?
3.08

Try this compound too: COc1ccccc1N1CCN(c2ccc(S(=O)(=O)C3(C(=O)NO)CCOCC3)cc2)CC1 [Example 85]
2.57

// next record COCCNCCCCC(=O)N1CCC(C(=O)NO)(S(=O)(=O)c2ccc(Oc3ccc(C(F)(F)F)cc3)cc2)CC1 [Example 347]
-0.15
